- TARGET SYSTEM: T1, MSLN·His protein (human, UniProt Q13421 296-580, limits assumed)
- T1 construct: Bought protein; also called human MSLN·His antigen; not shown: His tag
- T1 sequence (Q13421 other isoform, or with tags, fused parts or gaps limits assumed): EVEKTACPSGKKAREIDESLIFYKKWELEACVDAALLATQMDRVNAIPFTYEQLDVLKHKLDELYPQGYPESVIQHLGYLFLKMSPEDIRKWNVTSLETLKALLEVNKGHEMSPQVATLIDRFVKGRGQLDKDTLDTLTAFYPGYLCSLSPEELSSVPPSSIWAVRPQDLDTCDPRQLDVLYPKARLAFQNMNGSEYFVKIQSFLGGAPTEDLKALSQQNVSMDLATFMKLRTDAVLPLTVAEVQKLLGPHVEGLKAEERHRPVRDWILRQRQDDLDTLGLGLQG
- ASSAY PROTOCOL: SPR (Biacore), antibody captured on protein A, MSLN·His as analyte
Record form. Attribute: log10(Kd). Fill in for each entry.
Response schema: value (number) is log10 of Kd in units of nM.

# return log10(Kd) for each item in the list
1. M2339-z11-1 (antibody, IgG4, V domains shown, Humanized variant of M2339) VH: EVQLVASGGGLVQPGGSLRLSCALSGFTLRELDEFAIGWFRQAPGKEREGVSCISGTGGITHYADSVKGRFTISRDNSKTTVYLQMNSLRAEDTAVYYCAADERCTDRLIRPPTYWGQGTQVTVSS
2. M2339-z11-17 (antibody, IgG4, V domains shown, Humanized variant of M2339) VH: ELQLGASGGGLVQPGGSLRLSCALSGFTLRELDEFAIGWFRQAPGKEREGVSCISGTGGITHYADSVKGRFTISRDNSKNTLYLQMNSLRAEDTAVYYCAADERCTDRLIRPPTYWGQGTQVTVSS
3. M2339-z11-16 (antibody, IgG4, V domains shown, Humanized variant of M2339) VH: QLQLGASGGGLVQPGGSLRLSCALSGFTLRELDEFAIGWFRQAPGKEREGVSCISGTGGITHYADSVKGRFTISRDIAKTTVYLQMNSLRAEDTAVYYCAADERCTDRLIRPPTYWGQGTQVTVSS
4. M2339-z11-8 (antibody, IgG4, V domains shown, Humanized variant of M2339) VH: QLQLGESGGGLVQPGGSLRLSCALSGFTLRELDEFAIGWFRQAPGKEREGVSCISGTGGITHYADSVKGRFTISRDIAKTTVYLQMNSLNSEDTAVYYCAADERCTDRLIRPPTYWGQGTQVTVSS

// result
[1.77, 0.60, -1.02, -0.44]

Value sought for every listed binder: log10(Kd).
1. M2339-z11-9 (antibody, IgG4, V domains shown, Humanized variant of M2339) VH: QLQLVASGGGLVQPGGSLRLSCALSGFTLRELDEFAIGWFRQAPGKEREGVSCISGTGGITHYADSVKGRFTISRDIAKTTVYLQMNSLNSEDTAVYYCAADERCTDRLIRPPTYWGQGTQVTVSS
2. M2339-z11-14 (antibody, IgG4, V domains shown, Humanized variant of M2339) VH: QLQLGASGGGLVQPGGSLRLSCALSGFTLRELDEFAIGWFRQAPGKEREGVSCISGTGGITHYADSVKGRFTISRDIAKNTVYLQMNSLNSEDTAVYYCAADERCTDRLIRPPTYWGQGTQVTVSS
3. M2339-z11-12 (antibody, IgG4, V domains shown, Humanized variant of M2339) VH: EVQLGASGGGLVQPGGSLRLSCALSGFTLRELDEFAIGWFRQAPGKEREGVSCISGTGGITHYADSVKGRFTISRDIAKTTVYLQMNSLNSEDTAVYYCAADERCTDRLIRPPTYWGQGTQVTVSS
4. M2339-z11-15 (antibody, IgG4, V domains shown, Humanized variant of M2339) VH: QLQLGASGGGLVQPGGSLRLSCALSGFTLRELDEFAIGWFRQAPGKEREGVSCISGTGGITHYADSVKGRFTISRDIAKTTLYLQMNSLNSEDTAVYYCAADERCTDRLIRPPTYWGQGTQVTVSS

// result
[-0.84, -0.64, 1.09, -0.80]
